Tested on: NCI-H522 lung
Experiment: NCI-60 one-dose screen, 48 h
Details: 10 µM unless noted
Method: Growth inhibition of the NCI-H522 human Non-Small Cell Lung tumor cell line is measured as a screen for anti-cancer activity. Cells are grown in 96 well plates and exposed to the test compound for 48 hours. Compounds are tested at a single concentration, which is 10^-5 M for most compounds. The reported endpoint is percent growth (GI% or GIPRCNT), where numbers from 0 - 100% represent growth inhibition, and numbers from -100% - 0 represent cell death. […]
Compounds without any hit were thinned out: in the full panel of roughly 83,000, 20% have a hit. Activity calls are given as the source filed them. The calls were made as follows: active = growth percent below 10; inactive = the rest.
Assign a class; possible classes are active, inactive

Please indicate how the test categorized C#CCOc1ccccc1/C=N/Nc1nc(-c2ccc(Cl)cc2)cs1 .
inactive

Hi, do you know how C#CCOc1ccccc1C(OC(=O)c1ccccc1)C(=O)NC(C)(C)C(C)(C)C (stereo not given) came out in this test?
inactive

Assay outcome for CNCCN(C)c1ccc(Nc2cc(NC3CC3)n3ncc(C#N)c3n2)cc1NC(C)=O : what was it?
active

Given C#CCN(C)CCCOc1ccc(NC(=O)CCCCCCCCC(=O)NO)cc1Cl , state the outcome it received in this test.
inactive

Dear all, I need the recorded test outcome for COc1ccc(/C=N/N=C(/c2ccccc2)c2ccc3nc(-c4ccc(Cl)cc4)[nH]c3c2)cc1 , thank you.
inactive

---

Consider the following compounds; for each one, report its growth.
Tested on: RPMI-8226 leukemia
Assay: NCI-60 one-dose screen, 48 h (100 = growth as untreated, 0 = no growth, -100 = all killed)
Details: 10 µM unless noted
The panel holds about 83,000 compounds, 20% with a hit somewhere; the sample as a whole holds those more often.
Just the number please, in %, no unit attached.

Summary: CC1=C(SCC(=O)OCCCCCC(C)C)C(=O)c2ccccc2C1=O , RPMI-8226 leukemia, growth = 61

Test item CCCN1C=C/C(=C\C(=O)n2ccc3ccccc32)c2ccccc21 ; RPMI-8226 leukemia; reported growth was 69.3

Value (growth, RPMI-8226 leukemia) for record Brc1cccc(-c2cc(-c3cnc4c(c3)OCCO4)n[nH]2)c1 = 26.2

I looked up O=C(NCCNc1cc(-c2cn(-c3ccccc3)nc2-c2cccc(O)c2)ccn1)Nc1cc(C(F)(F)F)cc(C(F)(F)F)c1 and its growth for RPMI-8226 leukemia was 94.7

I looked up CSc1ccc(C(=NNS(=O)(=O)c2ccc(C)cc2)c2ccc(Cl)cc2)cc1 and its growth for RPMI-8226 leukemia was 97.8

Known value: RPMI-8226 leukemia growth of the compound Cn1cc(-c2nc(N)nnc2-c2c[nH]c3ccc(Br)cc23)c2cc(F)ccc21 equals 80.2

// assay RPMI-8226 leukemia, entry O=C(CSc1nc2ccccc2c(=O)n1-c1ccccc1)N/N=C/c1ccc(Oc2ccc(Cl)cc2)cc1 , growth value = 73.3

Tested system RPMI-8226 leukemia; growth recorded for CCc1cc(OC(=O)N2CCN(CCC(C)(COC(C)(C)C)COC(C)(C)C)CC2)ccc1Nc1cc(-c2ccc(-n3cccn3)cc2)[nH]n1 was 60.5

Field growth (system: RPMI-8226 leukemia) for entry COc1ccc2c(c1)c(-c1nnc(N)nc1-c1c[nH]c3ccc(F)cc13)cn2C = 28.2

# growth measured on RPMI-8226 leukemia for item Cn1c(SCC(=O)c2ccco2)nc2ccccc2c1=O = 93.4

---

Test system: SNB-75 CNS
Assay: NCI-60 one-dose screen, 48 h (100 = growth as untreated, 0 = no growth, -100 = all killed)
Conditions: 10 µM unless noted
This is part of a sample that, as a whole, favours compounds with a hit. Of some 83,000 tested, about 20% had one in any assay.
parameter: growth (%)
Give just the numeric value; % need not be written.

Consider O=C(NCCNc1cc(-c2cn(-c3ccccc3)nc2-c2cccc(O)c2)ccn1)Nc1cc(C(F)(F)F)cc(C(F)(F)F)c1 . Its measured growth is 75.4

growth recorded for this compound, NC1C2CCC1CN(c1cnc(C(=O)Nc3cc(F)cc4cccnc34)cn1)C2 (centres undefined) , is 46.4

growth reading for C#CCOc1ccc(/C=N/Nc2nc(-c3ccc(OC)cc3)cs2)cc1 : 86.2

What the record says about COC(=O)c1cccc(NC2=CC(=O)C(C)=C(C)C2=O)c1 : growth is 93.4

Measured growth of CC(=C(c1ccc(OCCN(C)C)cc1)c1ccc(OCCN(C)C)cc1)c1ccc(Cl)cc1 : -20.2

Per the record, NC(=O)n1c(=O)n(-c2cccc(C(F)(F)F)c2)c(=O)c2cc(-c3ccc(F)cc3F)ccc21 has growth of -18.3

According to the records, this compound CCCCSC1=C(Cl)CN(c2ccc(Cl)cc2)C1=O displays growth of 104

growth recorded for this compound, NS(=O)(=O)c1ccc(Nc2nc(Nc3ccccc3)nc(N3N=C(c4ccc(Cl)cc4)CC3c3ccc(Cl)cc3)n2)cc1 (centres undefined) , is 68

Measured growth, COc1ccc(-c2cc(-c3ccc(N(C)C)cc3)n3c(n2)nc2ccccc23)cc1 : 95.2

Reported growth for Cc1ccc(C(=O)CSc2nnc(-c3ccc(-c4ccc(Cl)cc4)nc3C)o2)cc1 was 90.7

compound COc1cccc2c1[C@H](OC)[C@]13O[C@@]1(C2=O)[C@H](O)[C@H](C)[C@@](O)(C(=O)[C@@H]1O[C@H]1C)[C@@H]3O , growth observed: -61.7

Per the records, this compound ( O=c1[nH][nH]c(-c2ccc(F)cc2)c1-c1nc2ccccc2s1 ) has growth equal to 88.4

Please fill in: growth reported for CC(=O)OCCCCN1C=C/C(=C\C(=O)n2ccc3ccccc32)c2ccccc21 = 100

Looking up Cn1cc(-c2nn3cc(-c4ccncc4)nc3s2)c2cc(Br)ccc21 , I found its growth recorded as 45.9

Field growth (entry O=C(CSc1nc2ccccc2c(=O)n1-c1ccc(Cl)c(Cl)c1)Nc1ccc(S(=O)(=O)Nc2ccc(Cl)nn2)cc1 ) reads 68.8

Lookup result for NS(=O)(=O)c1nnc(/N=C/c2c(O)[nH]c3ccccc23)s1 ; measured growth: 81.2

// growth lookup, compound = Fc1cccc(Cl)c1/C=N/Nc1nc(N/N=C/c2c(F)cccc2Cl)nc(N2CCCCC2)n1 , result: 37.5

Sure, the documented growth for Brc1cccc(-c2cc(-c3ccc4c(c3)OC=CO4)[nH]n2)c1 is 27.5

Reported growth ( CC1=C(C)C(=O)C(Nc2cccc(C(=O)OC(C)(C)C)c2)=C(Cl)C1=O ) = 58.4

---

System: A549/ATCC NSCLC
Test: NCI-60 one-dose screen, 48 h (100 = growth as untreated, 0 = no growth, -100 = all killed)
Conditions: 10 µM unless noted
About 83,000 compounds went through this panel and 20% of them were active in at least one assay; those are over-represented in the sample as a whole.
Exercise: for every item that follows, state its recorded growth.
Just the number please, in %, no unit attached.

Entry COC(=O)c1cccc(NC2=C(Cl)C(=O)C(C)=C(C)C2=O)c1 , growth reported as 115

In plain terms, CCCCN1C(=O)/C(=c2\sc3n(c2=O)C2C(NN=3)N(CC)C(=O)N2CC)c2cccc(C)c21 (stereo not drawn) has a documented growth of 57.1

Consider O=C1[C@@H]2Cc3c([nH]c4ccccc34)[C@H](c3ccc(Cl)cc3)N2C(=O)CN1C1CCN(Cc2ccccc2)CC1 . Its measured growth is 38.8

// growth lookup, compound = CC[C@]12C=CCN3CC[C@]4(C(=C(C(=O)OC)C1)Nc1cc5c(cc14)[C@@H]1[C@H](O5)[C@@H](O)[C@@]4(CC)CC(C(=O)OC)=C5Nc6cc(O)ccc6[C@@]56CCN1C46)C32 (stereo partly drawn) , result: 20.2

In plain terms, O=C(CSc1nnc(-c2ccc(Cl)cc2)n1-c1ccccc1)Nc1ccccc1Cl has a documented growth of 30.4

// field: growth; key: O=C(O)CC1CCN(c2ccc3nnc(Cl)n3n2)CC1 ; value = 103

compound COC(=O)N1CCN(CCNCc2ccc(NC(=O)c3ccc(C)c(C#Cc4cnc5cccnn45)c3)cc2C(F)(F)F)CC1 , growth observed: 27.9

GET /value?item= O=C(NNc1nc2cc(F)cc(F)c2n2cccc12)c1cccnn1 &field=growth returns 17.5

Lookup result for O=C1Nc2ccc(F)cc2/C1=C\C(=O)c1ccc(NS(=O)(=O)c2ccccc2)cc1 ; measured growth: 97.4

Entry under test: CN1CCN(c2ccc(Nc3nc(NCCNC(=O)c4ccc(F)cc4)c4sccc4n3)cc2)CC1 . Its growth was 77.9

Entry CCCCCC[n+]1ccc(SCC(=O)n2ccc3ccccc32)c2ccccc21 — recorded growth = 101

Lab note: measured growth of CCCCCN1C(=O)/C(=c2\sc3n(c2=O)C2C(NN=3)N(CC)C(=O)N2CC)c2cccc(C)c21 (stereo not drawn) was 68.6

Quick note, growth for COc1ccc2[nH]cc(-c3nc(N)nnc3-c3cn(C)c4ccc(Br)cc34)c2c1 landed at 35.6

Notebook: O=C(N/N=C\c1ccc(F)cc1)c1ccc2nc(-c3ccc(Br)cc3)[nH]c2c1 , growth read as -3.93

Measured growth, COc1ccc2c(c1)c(-c1nn3cc(-c4ccncc4)nc3s1)cn2C : 98.7

Value of growth reported for the compound Cn1c(SCC(=O)c2ccc(F)cc2)nc2ccccc2c1=O is 104

response.value for O=C(CSc1nc2ccccc2c(=O)n1-c1ccccc1)N/N=C/c1ccc(Oc2ccc(Br)cc2)cc1 (field: growth) = 42.2

The compound identified as Cn1cc(-c2nn3cc(-c4ccncc4)nc3s2)c2cc(F)ccc21 registered its growth at 94.9

Per the record, O=C(CCCCCCNC(=O)C(O)(O)C(F)(F)F)Nc1ncc(-c2ccccc2)s1 has growth of -12.9

// sample O=C(CSc1cc[n+](CCCCO)c2ccccc12)n1ccc2ccccc21 , its growth was 103

# growth (compound: CCc1cc2c(cc1Cl)nc1c(=O)[nH]c(=O)nc-1n2CCOCC(C)(C)C ) is 75.5

Per the record, O=c1c2cc(-c3ccc(F)cc3F)ccc2n(Nc2ccccc2)c(=O)n1-c1cccc(C(F)(F)F)c1 has growth of 10.5

Form field growth, entry CCN(CC)S(=O)(=O)c1ccc(-c2nc(C(Cl)Cl)nc3cc(-c4ccc(F)cc4)nn23)cc1 : 17.8

Entry under test: C#CCOc1ccccc1C(OC(=O)c1ccccc1)C(=O)NC(C)(C)C(C)(C)C (stereo not drawn) . Its growth was 74

Entry N#Cc1c(-c2cccs2)cc(-c2cnccn2)nc1SCC(=O)N/N=C/c1cccs1 , growth reported as 19.4

growth for CC1=C(C)C(=O)C(Nc2ccc(C)cc2)=C(Br)C1=O is 100

So, CCOC(=O)c1c(NC(=O)c2ccc(C(F)(F)F)cc2)sc2c3c(ccc12)OCN(C)C3 ? Its growth was -37.9

Form field growth, entry Cc1csc(/N=C(N)/N=C(\N)c2cccc(Br)c2)n1 : 101

Sample CCOC(=O)c1c(N)c(C#N)cn1Cc1ccc(Cl)cc1Cl ; growth observed: 76.2

# compound C[C@H](Nc1ncnc2ccc(-c3cnc(Cl)c(NS(C)(=O)=O)c3)cc12)c1ccccc1 ; its growth = -49.8

growth recorded for this compound, Nc1ncc(-c2ccc3ncnc(NCc4ccccc4)c3c2)cn1 , is 41.3

growth recorded for this compound, CN(C)CC(=O)Nc1nc(-c2cccc(NS(=O)(=O)c3cccc4c(N(C)C)cccc34)c2)cs1 , is 80.1

Quick note, growth for Clc1ccc2[nH]cc(-c3cncn3CCc3ccc4c(c3)OCO4)c2c1 landed at 73.2

Given item C#CCN(C)CCCOc1ccc(NC(=O)CCCCCCC(=O)NO)cc1Cl , the value recorded as its growth is 20.5

Briefly, growth measured for CCOC(=O)c1cccc(NC2=C(Cl)C(=O)c3nc(C)ccc3C2=O)c1 : 101

Just so you know, measured growth for CN1CCN(Cc2ccc(NC(=O)c3cncc(C#Cc4cnc5ccc(O[C@@H]6CCOC6)nn45)c3)cc2C(F)(F)F)CC1 came out at -76.8

The recorded growth for entry O=C(CCCCCCNC(=O)C(O)(O)C(F)(F)F)Nc1ncc(-c2ccc(Br)cc2)s1 equals -15.2

Form field growth, entry COc1ccc(-c2cc(-c3ccc(N4CCOCC4)cc3)n3c(n2)nc2ccccc23)cc1OC : 82.5
